Values were extracted from ChEMBL document CHEMBL3988442.

System: Trypanosoma cruzi
Assay: Trypanosoma cruzi phosphomannomutase and mannose-1-phosphate guanylyltransferase assay
Assay type: functional
Design: scale not given: direction of the effect not stated beside the values
Details: 10 µM
property_name: Percent Effect (%)

{"columns": ["molecule", "measured_number"],
 "data": [
  ["CS(=O)(=O)NCCCN1CCCC1c1ccccc1 (centres undefined)", 1.42],
  ["COCC(=O)NCc1cc(=O)n2c(n1)CN(Cc1ccsc1)CCC2", -2.83],
  ["CC(NC(=O)NCCCO)c1ccc2c(c1)OCCO2 (centres undefined)", 1.76],
  ["Cc1cc(C)n(C2CN(CC(=O)NC3CCOCC3)C2)n1", -1.33],
  ["Cc1cccc(CN2CCc3c(nc(N4CCCCC4C)[nH]c3=O)C2)n1 (centres undefined)", -3.36],
  ["Cc1nnc2n1CCN(C(=O)c1cc(Cl)c[nH]1)C2", 0.376],
  ["O=C(NCCN1CCOCC1)c1n[nH]c(=O)c2ccccc12", 6.37],
  ["COc1c(C2CCCN2CC(=O)Nc2nc(C)cs2)c(C)nn1C (centres undefined)", 4.74],
  ["CCS(=O)(=O)N1CCc2c(CN(C)Cc3ccco3)cncc2C1", -3.86],
  ["COCc1cnc2n1CCN(C(=O)C1=CCCCC1)C2C (centres undefined)", -1.77],
  ["Cc1ccoc1C(=O)N1CCO[C@H]2[C@H](OCC3CCOCC3)CC[C@@H]21", 5.02],
  ["COc1ccc(Cl)cc1C(=O)N1CCOC2(CNCCOC2)C1 (centres undefined)", -3.86],
  ["NC(=O)Cc1ccc(NC(=O)C2CCOCC2)cc1", -7.52],
  ["Clc1ccc2cccnc2c1CN1CCCC1Cn1cncn1 (centres undefined)", -5.85],
  ["COCCC(=O)N1CCC2(COCc3c(C)nc(NCC4CC4)nc32)C1 (centres undefined)", -5.32],
  ["Cc1nc(N2CCN(C(=O)c3ccsc3)CC2)c2cnn(C)c2n1", 1.6],
  ["Cc1nc(C)n(C2CCCN(C(=O)Cc3n[nH]c4ccccc34)C2)n1 (centres undefined)", 1.69],
  ["CC(C)c1cc(NCC(O)CO)n2nccc2n1 (centres undefined)", 3.48],
  ["COc1ncccc1NC(=O)N1CCC(CNC(C)=O)CC1", 3.02],
  ["COCC(=O)N1CC[C@@H]2O[C@H](COCc3ccncc3)CC[C@@H]21", -4.2],
  ["O=C(c1ccc(F)cc1)N1CCN2C[C@H](OCc3ccccn3)C[C@H]2C1", -2.83],
  ["CCCC(C)CN1CCC(n2cc(CCCO)nn2)CC1 (centres undefined)", 1.46],
  ["CC(=O)N1CC(=O)N(c2cnn(C)c2)CC12CCN(Cc1ccsc1)C2 (centres undefined)", -6.05],
  ["O=C(c1n[nH]c(=O)c2ccccc12)N1CCCCC1c1ccn[nH]1 (centres undefined)", -5.53]
]}
